The origin of these recorded values is patent US9126933B2.

Assay: Stability assay in human plasma
Format: in vitro ADME
Conditions: 1 μM compound
Attribute: half-life at 1 μM

| compound | half-life at 1 μM |
| --- | --- |
| CN(C)CCOC(=O)c1cccc(Oc2cc(C(=O)Nc3c(Cl)cncc3Cl)ccc2OC(F)F)c1 | < 15 min |

Consider `COC(=O)CNCCCOc1cc(C(=O)Nc2c(Cl)cncc2Cl)ccc1OC(F)F` . Its measured half-life at 1 μM is 15 to 60 min

// half-life at 1 μM value for O=C(Nc1c(Cl)cncc1Cl)c1ccc(OC(F)F)c(OCCCNC2CCOC2=O)c1 (stereo not shown) : < 15 min

The measured half-life at 1 μM associated with `CN(C)CCOC(=O)c1cccc(SCCCOc2cc(C(=O)Nc3c(Cl)cncc3Cl)ccc2OC(F)F)c1` reads < 15 min

Documented half-life at 1 μM of `O=C(CCCCOc1cc(C(=O)Nc2c(Cl)cncc2Cl)ccc1OC(F)F)OCCN1CCCC1` : < 15 min

Documented half-life at 1 μM of `O=C(CCCCOc1cc(C(=O)Nc2c(Cl)cncc2Cl)ccc1OC(F)F)Oc1ccccc1F` : < 15 min

For record O=C(CCCCOc1cc(C(=O)Nc2c(Cl)cncc2Cl)ccc1OC(F)F)OCC1CCCO1 (stereo not shown) the listed half-life at 1 μM is 15 to 60 min

Entry under test: `O=C(CCCCOc1cc(C(=O)Nc2c(Cl)cncc2Cl)ccc1OC(F)F)OCCN1CCOCC1` . Its half-life at 1 μM was 15 to 60 min

O=C(Nc1c(Cl)cncc1Cl)c1ccc(OC(F)F)c(OCCCSC2CCOC2=O)c1 (stereo not shown) yielded half-life at 1 μM of < 15 min

Lookup result for `CN(C)CCOC(=O)CCCCOc1cc(C(=O)Nc2c(Cl)cncc2Cl)ccc1OC(F)F` ; measured half-life at 1 μM: < 15 min

* * *

Target: recombinant PDE4D2 (Homo sapiens, UniProt Q08499)
Sequence (Q08499 303-809 limits assumed): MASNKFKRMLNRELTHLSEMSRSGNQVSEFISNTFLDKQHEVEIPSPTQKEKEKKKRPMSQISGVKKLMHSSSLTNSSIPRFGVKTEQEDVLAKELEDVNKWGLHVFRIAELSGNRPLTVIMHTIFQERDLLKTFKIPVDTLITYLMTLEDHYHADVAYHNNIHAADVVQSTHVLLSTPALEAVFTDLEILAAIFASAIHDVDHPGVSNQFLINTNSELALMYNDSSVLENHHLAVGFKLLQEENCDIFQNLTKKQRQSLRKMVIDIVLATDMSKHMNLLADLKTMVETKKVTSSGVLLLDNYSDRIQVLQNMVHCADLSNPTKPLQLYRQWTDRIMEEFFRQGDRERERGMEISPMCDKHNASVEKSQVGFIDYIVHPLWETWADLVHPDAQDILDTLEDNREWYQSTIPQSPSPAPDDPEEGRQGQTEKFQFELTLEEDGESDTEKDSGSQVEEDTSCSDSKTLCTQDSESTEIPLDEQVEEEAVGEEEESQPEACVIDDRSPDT
Assay: PDE4 inhibitory activity screening, PDE4D2 (HTRF, cAMP substrate)
Conditions: 40 nM cAMP, 30 minutes, room temperature
pIC50: −log10 of the molar value.
measurement-type: pIC50

Reference set, count: 4
| molecule | measurement-type | experimental-value |
| --- | --- | --- |
| O=C(CCCCOc1cc(C(=O)Nc2c(Cl)cncc2Cl)ccc1OC(F)F)Oc1ccccc1F [Compound 3] | pIC50 | 6.30 to 7.00 |
| O=C(Nc1c(Cl)cncc1Cl)c1ccc(OC(F)F)c(OCCCSc2cccc(C(=O)OCCO)c2)c1 [Compound 23] | pIC50 | 7.00 to 8.00 |
| CCCOC(=O)CCCCOc1cc(C(=O)Nc2c(Cl)cncc2Cl)ccc1OC(F)F [Compound 1] | pIC50 | 7.00 to 8.00 |
| CN(C)CCOC(=O)c1ccc(Oc2cc(C(=O)Nc3c(Cl)cncc3Cl)ccc2OC(F)F)cc1 [Compound 28] | pIC50 | 6.30 to 7.00 |

Kindly note: recombinant PDE4D2 (Homo sapiens, UniProt Q08499), COC(=O)c1ccc(SCCCOc2cc(C(=O)Nc3c(Cl)cncc3Cl)ccc2OC(F)F)cc1 [Compound 18] , pIC50 value reported: 6.30 to 7.00

// assay recombinant PDE4D2 (Homo sapiens, UniProt Q08499), entry O=C(Nc1c(Cl)cncc1Cl)c1ccc(OC(F)F)c(OCCCSc2ccc(C(=O)OCCO)cc2)c1 [Compound 25] , pIC50 value = 7.00 to 8.00

Response field pIC50 (recombinant PDE4D2 (Homo sapiens, UniProt Q08499)) for item CN(C)CCOC(=O)c1cccc(SCCCOc2cc(C(=O)Nc3c(Cl)cncc3Cl)ccc2OC(F)F)c1 [Compound 24] : 7.00 to 8.00

I looked up O=C(Nc1c(Cl)cncc1Cl)c1ccc(OC(F)F)c(OCCCSC2CCOC2=O)c1 (centres unmarked) [Compound 13] and its pIC50 for recombinant PDE4D2 (Homo sapiens, UniProt Q08499) was > 8.00
